The reported measurements were obtained from patent US20250353853A1.

# System: ZIKV replicon in Vero cells
# assay text: ZIKV Replication Inhibition Assay (replicon, NanoLuc)
# condition summary: Zika virus, Vero, 72 h, read-out: Zika Replicon EC50
reported property: EC50

compound	measured on	EC50
Cc1ncnc(C)c1-c1ccc(C[n+]2cc([N-]C(=O)Nc3cncc(C(F)(F)F)c3)on2)nc1 [Example 132]	ZIKV replicon in Vero cells	100 to 1000 nM
CC(Cc1ccccc1)[n+]1cc([N-]C(=O)Nc2ccc3ccccc3c2)on1 (stereo not shown) [Example 3]	ZIKV replicon in Vero cells	> 20000 nM

Which measured EC50 value corresponds to Cc1nn(C)c(C)c1-c1ccc(C[n+]2cc([N-]C(=O)Nc3cccc(C(F)(F)F)c3)on2)cc1 [Example 97] ?
< 100 nM

Which measured EC50 value corresponds to CC(c1ccccc1)[n+]1cc([N-]C(=O)Nc2cccc(C(F)(F)F)c2)on1 (stereo not shown) [Example 38] ?
1000 to 20000 nM

Which measured EC50 value corresponds to N#Cc1ncncc1-c1ccc(C[n+]2cc([N-]C(=O)Nc3cncc(C(F)(F)F)c3)on2)nc1 [Example 144] ?
1000 to 20000 nM

Which measured EC50 value corresponds to C=C(c1ccccc1)[n+]1cc([N-]C(=O)Nc2cccc(C(F)(F)F)c2)on1 [Example 35] ?
1000 to 20000 nM
